# reported EC50; entries follow
# MEASURED_ON: B2-AR (Homo sapiens, UniProt P07550)
# Construct: expressed in transfected cells; host or cells: CHO-K1
# Sequence (P07550 whole entry, species assumed): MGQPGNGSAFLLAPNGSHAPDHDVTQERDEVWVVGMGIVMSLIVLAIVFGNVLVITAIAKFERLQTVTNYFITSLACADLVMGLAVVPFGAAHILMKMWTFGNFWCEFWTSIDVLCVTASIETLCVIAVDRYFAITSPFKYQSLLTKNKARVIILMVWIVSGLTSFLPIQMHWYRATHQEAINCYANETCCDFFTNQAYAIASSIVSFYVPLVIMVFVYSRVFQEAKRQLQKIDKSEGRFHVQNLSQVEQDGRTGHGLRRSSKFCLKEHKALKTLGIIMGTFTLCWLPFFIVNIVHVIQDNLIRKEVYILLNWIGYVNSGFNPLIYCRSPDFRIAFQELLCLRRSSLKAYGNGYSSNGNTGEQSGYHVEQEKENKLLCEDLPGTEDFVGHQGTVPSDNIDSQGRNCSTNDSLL
# ASSAY_NAME: cAMP Gs dynamic HTRF assay, cells expressing beta-adrenergic receptor (CHO-K1), B2-AR
# Format: cell-based
# COND: CHO-K1 cells, cAMP HTRF; read-out: pEC50 [B2-AR] (converted)
VALUE_KIND: EC50

>>> print(df.to_string())
                                   molecule                           measured_on  endpoint_result
0  Cc1c(F)cc([C@@H](O)CNC(C)(C)C)c2cn[nH]c12 [I-62]  B2-AR (Homo sapiens, UniProt P07550)          < 10 nM
1  CC1(CNC[C@H](O)c2ccc(F)c3[nH]ncc23)CC1 [I-81]  B2-AR (Homo sapiens, UniProt P07550)          < 10 nM
2  CC(C)(C)CNC[C@H](O)c1ccc(Cl)c2[nH]ncc12 [I-68]  B2-AR (Homo sapiens, UniProt P07550)          < 10 nM
3  CCC(C)(C)NC[C@H](O)c1cc(Cl)c(N)nc1C [I-171]  B2-AR (Homo sapiens, UniProt P07550)          < 10 nM
4  CC(C)CNC[C@H](O)c1cccc2[nH]cc(F)c12 [I-111]  B2-AR (Homo sapiens, UniProt P07550)     10 to 100 nM
5  CCC(C)(CC)NC[C@H](O)c1cc(F)cc2[nH]ncc12 [I-26]  B2-AR (Homo sapiens, UniProt P07550)          < 10 nM
6  Cn1ncc2c([C@@H](O)CNC(C)(C)C)cc(F)cc21 [I-57]  B2-AR (Homo sapiens, UniProt P07550)          < 10 nM
7  CC(C)(C)NC[C@H](O)c1cc2cccnc2cc1Cl [I-80]  B2-AR (Homo sapiens, UniProt P07550)     10 to 100 nM
8  O[C@@H](CNC1CCC1)c1cccc2[nH]nc(Cl)c12 [I-97]  B2-AR (Homo sapiens, UniProt P07550)          < 10 nM
9  Cn1c(=O)[nH]c2cccc([C@@H](O)CNC(C)(C)C)c21 [I-93]  B2-AR (Homo sapiens, UniProt P07550)        > 1000 nM
